# Experiment Summary: Lipophilicity (pKa, LogP)
# Type: physicochemical
# Condition Summary: ACD/Labs T3 (pH-metrior)
Property: logP

>>> assay_result("COc1ccc(OC)c(/C=C/C(=O)c2ccc(NS(=O)(=O)c3ccc(Cl)cc3)cc2)c1")
4.75

----------
# System: L929
# Experiment Summary: Cytotoxicity test (Cyto X cell viability assay kit), L929
# Type: cell-based
# Condition Summary: Mus musculus
Property: IC50

>>> assay_result("COc1ccc(OC)c(/C=C/C(=O)c2ccc(NS(=O)(=O)c3ccc(Cl)cc3)cc2)c1")
"> 100 µM"

----------
# Tested on: NIH 3T3
# Experiment Summary: Cytotoxicity test (Cyto X cell viability assay kit), NIH 3T3
# Type: cell-based
# Condition Summary: Mus musculus, NIH3T3
pIC50: −log10 of the molar value.
Property: pIC50

>>> assay_result("COc1ccc(OC)c(/C=C/C(=O)c2ccc(NS(=O)(=O)c3ccc(Cl)cc3)cc2)c1 [Preparation Example 6]")
"< 4.00"

----------
# Assay Target: hERG channel (Homo sapiens, UniProt Q12809)
# Sequence (Q12809 whole entry): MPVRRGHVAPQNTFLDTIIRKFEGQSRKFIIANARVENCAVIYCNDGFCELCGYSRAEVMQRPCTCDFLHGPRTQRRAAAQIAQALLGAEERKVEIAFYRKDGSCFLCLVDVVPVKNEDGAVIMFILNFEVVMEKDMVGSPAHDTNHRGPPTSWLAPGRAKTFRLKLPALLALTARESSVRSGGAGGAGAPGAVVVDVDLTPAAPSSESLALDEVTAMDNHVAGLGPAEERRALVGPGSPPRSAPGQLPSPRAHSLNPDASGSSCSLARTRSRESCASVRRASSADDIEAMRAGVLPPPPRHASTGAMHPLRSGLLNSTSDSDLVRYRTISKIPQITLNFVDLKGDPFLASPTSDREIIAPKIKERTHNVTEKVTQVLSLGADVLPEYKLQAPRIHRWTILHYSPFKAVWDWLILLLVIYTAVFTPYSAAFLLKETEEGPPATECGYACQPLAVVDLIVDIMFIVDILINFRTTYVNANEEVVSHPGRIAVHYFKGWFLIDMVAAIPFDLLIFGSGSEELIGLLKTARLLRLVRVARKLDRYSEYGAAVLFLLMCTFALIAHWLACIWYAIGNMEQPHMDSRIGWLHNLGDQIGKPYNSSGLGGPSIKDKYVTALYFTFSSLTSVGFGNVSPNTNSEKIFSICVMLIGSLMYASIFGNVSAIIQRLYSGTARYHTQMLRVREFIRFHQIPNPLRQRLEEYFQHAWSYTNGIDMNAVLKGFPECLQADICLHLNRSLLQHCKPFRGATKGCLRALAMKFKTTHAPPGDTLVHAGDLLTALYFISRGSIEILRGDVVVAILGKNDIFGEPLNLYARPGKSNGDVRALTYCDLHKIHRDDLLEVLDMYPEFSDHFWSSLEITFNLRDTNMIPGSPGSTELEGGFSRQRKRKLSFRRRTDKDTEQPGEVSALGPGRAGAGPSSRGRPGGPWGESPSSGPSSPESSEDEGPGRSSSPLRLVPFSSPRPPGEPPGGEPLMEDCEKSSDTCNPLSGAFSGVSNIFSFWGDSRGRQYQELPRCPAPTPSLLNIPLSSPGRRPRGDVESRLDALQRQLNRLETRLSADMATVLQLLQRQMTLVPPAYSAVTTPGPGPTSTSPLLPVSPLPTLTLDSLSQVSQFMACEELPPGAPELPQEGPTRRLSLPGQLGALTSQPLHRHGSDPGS
# Experiment Summary: Cardiac stability test, hERG ligand binding assay
# Condition Summary: read-out: Inhibition rate
Property: inhibition at 10 µM

>>> assay_result("COc1ccc(OC)c(/C=C/C(=O)c2ccc(NS(=O)(=O)c3ccc(Cl)cc3)cc2)c1 [Preparation Example 6]")
"≤ 1%"
